# Tested on: Digitaria sanguinalis
# protocol: Herbicidal activity against hairy Digitaria sanguinalis (hairy crabgrass) assessed as inhibition of herb growth at 1.5 kg/ha during postemergence treatment protocol
# Assay type: functional
# experimentalConditions: post-emergence, read-out: GI
Label scheme for inhibition of growth at 1500 g/ha: lower than 50% is label 0, 50% and above is label 1.

smilescode=CCOCCOC(=O)/C(C#N)=C(\NCc1coc(-c2ccccc2)n1)C(C)C labelvalue="label 1"
smilescode=CCOCCOC(=O)/C(C#N)=C(\NCc1nc(-c2ccc(C(F)(F)F)cc2)no1)SC labelvalue="label 0"
smilescode=CCOCCOC(=O)/C(C#N)=C(\NCc1nc(-c2ccc(F)cc2)no1)C(C)C labelvalue="label 1"
smilescode=CCOCCOC(=O)/C(C#N)=C(/CC)NCc1ccc2ccccc2n1 labelvalue="label 0"
smilescode=CCOCCOC(=O)/C(C#N)=C(\NCc1ccc2ncccc2c1)SC labelvalue="label 1"
smilescode=CCOCCOC(=O)/C(C#N)=C(\NCc1nc(-c2ccc(C(F)(F)F)cc2)no1)C(C)C labelvalue="label 1"
smilescode=CCOCCOC(=O)/C(C#N)=C(\NCc1cnc2ccccc2c1)C(C)C labelvalue="label 0"
smilescode=CCOCCOC(=O)/C(C#N)=C(\NCc1ncc(C(C)C)o1)C(C)C labelvalue="label 0"
smilescode=CCOCCOC(=O)/C(C#N)=C(/CC)NCc1nc(-c2ccc(F)cc2)no1 labelvalue="label 0"
smilescode=CCOCCOC(=O)/C(C#N)=C(\NCc1ncc(C(C)C)o1)SC labelvalue="label 0"
smilescode=CCOCCOC(=O)/C(C#N)=C(\NCc1nc(-c2ccc(F)cc2)no1)SC labelvalue="label 0"
smilescode=CCOCCOC(=O)/C(C#N)=C(\NCc1coc(-c2cccc(Cl)c2)n1)SC labelvalue="label 0"
smilescode=CCOCCOC(=O)/C(C#N)=C(\NCc1coc(-c2ccccc2)n1)SC labelvalue="label 0"
smilescode=CCOCCOC(=O)/C(C#N)=C(\NCc1ncc(C)o1)SC labelvalue="label 0"
smilescode=CCOCCOC(=O)/C(C#N)=C(\NCc1cnc2ccccc2c1)SC labelvalue="label 0"
smilescode=CCOCCOC(=O)/C(C#N)=C(\NCc1ccc2ccccc2n1)SC labelvalue="label 0"
smilescode=CCOCCOC(=O)/C(C#N)=C(\NCc1coc(-c2cccc(Cl)c2)n1)C(C)C labelvalue="label 0"
smilescode=CCOCCOC(=O)/C(C#N)=C(\NCc1ccc2ncccc2c1)C(C)C labelvalue="label 0"
